Assay: label from the status in PepcDB records
QUANTITY_NAME: protein production

monomer_sequence=MQKNFSVVKKYVNLILDIVLGILGVFLLVFMASYLVDLATYLMKPMTPDNFSVIMQEIISFFMLFEFIMMILRYIQEGHHIPIRYLILICLTAILRQLMVAHGDGLQTLLLSLSILLLVVVLFILGLNGSKFYTLGKAKVEEDHEQDFHH result=failed
monomer_sequence=MKTRKIPLRKSVVSNEVIDKRDLLRIVKNKEGQVFIDPTGKANGRGAYIKLDNAEALEAKKKKVFNRSFSMEVEESFYDELIAYVDHKVKRRELGLE result="not failed"
monomer_sequence=MNDISVSADRHAIERGSFNGNAKEYFGIWIVNILLTIMTLGIYSAWAKVRRKRYFNGNTLLAGRAFGYHATGGQIFKGRLIAFAFIVFSQLVGLIHPFLVFAPTILLLIFLPWVITRSIRFNARVTSYRNVRFDFVGTAWGAFVSILLGSFVALLSIGILAPLASRWANRYIVSNLHYGDRRFSTDPKIGALYRAWIIPALLVVVGGVLAVFLLIFLAMVLVQAAGIGSRELATAPENYEIVTLFGLGQILINLLVAMLIYGFASTVYKAGVRNVVVSSTLLDGKHELHSDLHRGRYLWIVFSNLIVTIFTFGLMRPWAAVREAQYAVERMGISFKGDMGEVLSSMEATGAAVSAEYMDMEGFEFGF result="not failed"
monomer_sequence=MTAPKVFVSHASEDKARFVVDFARRLRENGVDAWLDQWEMKPGDSLVDKIFEEGLREARAVVIVLSATSVRKPWVREELNASVVNRISRGTKLIPVVIDDCDVPEALRSTVWQKIDNLDDYGESLQRILSVIFDVTDKPALGAPPARFAGPAPLIAGLSRVDDLVIRVIARRQIDEGAGLVEWDRLKAEPILRDVPQQELLDSLEILKRHDFIRVREVIGALHVVLTDLGFLKFAEAYVDDYQGTVNQIAALLVNENVRQNRELAARVNKPVAFIDFVLNLMESNGYIKVSKYIGGQSHVREVSASLRRALQSA result=failed
monomer_sequence=VTGSIRSKLSAIDVRQLGTVDYRTAWQLQRELADARVAGGADTLLLLEHPAVYTAGRRTETHERPIDGTPVVDTDRGGKITWHGPGQLVGYPIIGLAEPLDVVNYVRRLEESLIQVCADLGLHAGRVDGRSGVWLPGRPARKVAAIGVRVSRATTLHGFALNCDCDLAAFTAIVPCGISDAAVTSLSAELGRTVTVDEVRATVAAAVCAALDGVLPVGDRVPSHAVPSPL result="not failed"
monomer_sequence=MAGTNSERELLTEGPAIILAFPQLGENIGMVARAMANFGLSELRLVSPRDGWPSEKARSAASRADHVIDGAKLYETLEEALADLNFVYATTARDRDGFKPVRSPIVAARELRHRFKEGEKVGIIFGRERTGLTNAEVALADEIVTFPVNPAFASLNLAQAVLLMSYEWLKTGMTSEDETSFQASQQRPATKEQLHGLCEHLEEA result=failed

----------
Assay: label from the status in PepcDB records
QUANTITY_NAME: protein production

monomer_sequence=MTNMRQVLKTDRLVLEPQSMARFDQWFAMERQRDEAGHRDLTEDQAWLRLCARQGMWDAYACGFYYLLDPVSGEMRGEAGFQFRRRGFGPGFDNHPEAAWAVASAHQGRGLAAEAMQALLAHHDRSSGRQRVVALIARSNLPSLRLAERLGFRGYSDVAFDGAAHLLLERAG result="not failed"
monomer_sequence=MNFFKILLMELRAIVSHKGVLLILIGAPLIYGLLYPLPYLRDIVTQQKIALVDEDNSFLSRQLAFMAQSSNELEIAFFSPSMLEAKKLLKEEKIYGILHIPSHFEANIHKQVPVTIDFYANSNYFLIYGALANAVVESINALNDEIRFKRNAQIEEAELGTDGIKIRPIALYNPSEGYLNYALSSVFIFILHQVMLIASSMFTSSRRLELALLDRKQIALRLCTRLLVFMGAFSVFILWYFGALFSFYGIERHGSALMVFLNSLIFMLATLSLGSFLGAWIKNEAHTTQIVLISSLPLIFMMGFVWPFESLPSYLQVFVQIVPAYHGISLLGRLNQMHAEFIDVSFHFYALIAIFIASFIGSVFKLSSLKKACENA result=failed
monomer_sequence=MKTGDKQFAVIGLGRFGLAVCKELQDSGSQVLAVDINEDRVKEAAGFVSQAIVANCTHEETVAELKLDDYDMVMIAIGADVNASILATLIAKEAGVKSVWVKANDRFQARVLQKIGADHIIMPERDMGIRVARKMLDKRVLEFHPLGSGLAMTEFVVGSRLMGKTLSDLALCKVEGVQVLGFKRGPEIIKAPDMSTTLEIGDLIIVVGPQDKLANKLKSLLEHHHHHH result=failed
monomer_sequence=MTKEPRNLSEWIKELKKASREAVILVEGKNDKKALSKFSIKNVIDLSGKRYADVVDMLEGKWEKVILLFDLDTHGERINQKMKELLSSQGFLVDENFRNFLKKWNIIHIEEINGGKNS result="not failed"
monomer_sequence=MAVLSMLGIIDAKPKVGYFYLGQYHASIGTSHFEKMTVSEIMGIPLTVHQKDSVYDVIVHIFMEDAGCAFILDDDDFLCGVVSRKDLLKISIGGGDLSKMPIGMVMTRMPHVTTVLENESLFAAADKLVSRKVDSLPVVRHDKQYPEKFKVIGKLSKTILASLFLEIRDY result=failed
monomer_sequence=TSKQRYSGKVHLCVARYSYNPFDGPNENPEAELPLTAGKYLYVYGDMDEDGFYEGELLDGQRGLVPSNFVDFVQDNESRLAST result="not failed"
monomer_sequence=LTTAGYYAAVDWGTSSFRLWIIGEDGAVLAERRSAEGMTTAAKTGFHTILDGHLAAVSAPAHLPIIICGMAGARQGWKEAGYIETPAALAEIAGRATAIPDVDRDIRILPGLAQRDRRHPDVMRGEETQLLGAAAHLGAGSHLVCMPGTHSKWVRLADDRVEGFSTFMTGELFDTIARHTILSHAVAEADTFAAGSAAFTDAVSRTRENPALATNLLFSVRAGQLLHGTAAADARAQLSGTLIGLEIAGALAGSGSVDGVCLVGSGGLGTLYRTALESQGLNVRAVDADEAVRAGLSAAARAIWPL result="not failed"

----------
Assay: label from the status in PepcDB records
QUANTITY_NAME: protein production

monomer_sequence=MYIKKIVIGLLFVTLVGCSSSPDTEETKEKILIKTNNYSDLIIFYKNQLKVSEDPYTREKLAQAYLDSGDPDSALFAIQYLNEDDDSRSISSFLIEANAQLECGMLEPALDTVNRVYKLNEDNPEIENLLGVIYASKRDLDKSRHYFNLARKHLYSDITIKNNLAILNIIEGKYDQAVKLLLPIYMSNKNDALVQANLMLAMAKAGDLEFMEKVLSPQFSKQEIERRYSILKNTESHRDDTNLFGAD quantity_name="protein production" result=failed
monomer_sequence=MNLLYMVLIGQIILFLIGAMYAIGQTKKTRNNMPLPLAVRLILSFSLTASAIWIWLQDPSVDYSTWVALGMTLSTVGDLFMAGLIPIGHRLIGGMITFALAHCFYVKAFLQTGISWNGFWIGLLVYGLFLIIGWFFFIRNEKQDKLFTIGALIYGLWVGGMACFAFALYYENTGIWWIPAFGGLLFVISDFIIGVTDIGGRKLKYEPLWIWFTYVAAQMCIVYVGI quantity_name="protein production" result=failed

----------
Experiment: label from the status in PepcDB records
QUANTITY_NAME: protein production

monomer_sequence=MGLFQIKPDIHYGANSLDILRTLEMEKVFLVTDENMVKLKVINKVTNILKSRGIEAKVYSDVKPDPTDEEIIKGMLELSAHDPDCIIALGGGSPIDACKSMIYFTNQIKRAMGQNKKPKFIAIPTTSGTGSEVTSYAVVTTKDKKIPLSDSEMLPDIAILNPEFIKTLSPSIIADTGMDVLTHAIEAYVSKSRNLFTNTFAIGAIKTVFADLVSNFENPQLEKERINLQIASCMAGVAFSNAGLGINHSIAHSLGARFHKPHGRLNAVIMSEVIQFNARNKNAAKYYREIVEALGFSPKEDVEGVEILAKAIKMRAAKMGIPNSLSELGIPKEQYFDEMEGIIDQIENDMCTGENPRRFSRIEMKQLLTDLY result="not failed"
monomer_sequence=MARYRGAVERLERRFGVSLALKGERRLSGKSALDKRAYGPGQHGQRRAKTSDYGLQLKEKQKAKMMYGISEKQFRSIFVEANRLDGNTGENLIRLIERRLDNVVYRMGFATTRSSARQLVTHGHVLVDGKRLDIPSYFVRSGQKIEIKEKTKSNSQVVRAMELTAQTGIVPWIDVEKDKKYGIFTRYPEREEVVVPIEERLIVELYSK result=failed
monomer_sequence=MNTVCTACMATNRLPEERIDDGAKCGRCGHSLFDGEVINATAETLDKLLQDDLPMVIDFWAPWCGPCRSFAPIFAETAAERAGKVRFVKVNTEAEPALSTRFRIRSIPTIMLYRNGKMIDMLNGAVPKAPFDNWLDEQLSRDPNS result="not failed"
monomer_sequence=VLTMPLVTSISQLNEPITLVSYTMGNVNGVPVNNVRKEHFTTWALVLSQYLSEVKASVGTKLEDTVTFVVRYDQPETILNSWRIEWQEKQYDIVKLTPDTAKKQWTTIIGKPVANK result="not failed"
monomer_sequence=ELQRRKLLQENILNSIPLPIHIKDVEDDFRYVFCNEESMRMFGTHEGETVCSVLDSEQAERMQKTDLEVFTTGKPYFGVERIILKDGRSYDTIVRKNIIYDGTKRLLLNIRWD result=failed
monomer_sequence=MAYDGLFTKKMVESLQFLTTGRVHKINQPDNDTILMVVRQNRQNHQLLLSIHPNFSRLQLTTKKYDNPFNPPMFARVFRKHLEGGIIESIKQIGNDRRIEIDIKSKDEIGDTIYRTVILEIMGKHSNLILVDENRKIIEGFKHLTPNTNHYRTVMPGFNYEAPPTQHKINPYDITGAEVLKYIDFNAGNIAKQLLNQFEGFSPLITNEIVSRRQFMTSSTLPEAFDEVMAETKLPPTPIFHKNHETGKEDFYFIKLNQFNDDTVTYDSLNDLLDRFYDARGERERVKQ result="not failed"
monomer_sequence=GNSKSRNDRTETVDKEVIKAPEFDADSAYQYIQVQADFGPRVPNTQAHKECGEYLAGQLEKFGAKVYNQYADLIAYDGTILKSRNIIGAYKPESKKRILLCAHWDSRPYADNDPDPKNHHTPILGVNDGASGVGVLLEIARQIQKEQPALGIDIVFFDSEDYGIPEFYDGKYKQDTWCLGSQYWARTPHVQNYNARYGILLDMVGGKDATFYYEGYSARTARSEMKKIWKKAHELGYGKYFVKEDGGETVDDHIYVNKLARIPCVDIINYDAGNPQSSFGSFWHTVNDTMENIDRNTLKAVGQTVMDVIYNEK result="not failed"
